# ASSAYED SYSTEM: RD1
# ASSAY: competition
pKi: −log10 of the molar value.
MEASUREMENT TYPE: pKi

[a] NHERF-2 PDZ2 (N2P2) PDZ2, Q15599 (protein) LRPRLCHLRKGPQGYGFNLHSDKSRPGQYIRSVDPGSPAARSGLRAQDRLIEVNGQNVEGLRHAEVVASIKAREDEARLLVVDPETD
[b] MAGI-3 PDZ6 (M3P6) PDZ6, Q5TCQ9 (protein) GCYPVELERGPRGFGFSLRGGKEYNMGLFILRLAEDGPAIKDGRIHVGDQIVEINGEPTQGITHTRAIELIQAGGNKVLLLLRPGTGLI
Problem: Kindly compare a with b and tell me which has the lower pKi figure. Label of pick, please.
Solution: a
(a: 5.27, b: 5.74)
